The reported measurements were obtained from paper PMC9273884.

# studyTarget: α-glucosidase (Saccharomyces cerevisiae, UniProt P53341)
# Construct: purchased Sigma-Aldrich
# Sequence (P53341 whole entry): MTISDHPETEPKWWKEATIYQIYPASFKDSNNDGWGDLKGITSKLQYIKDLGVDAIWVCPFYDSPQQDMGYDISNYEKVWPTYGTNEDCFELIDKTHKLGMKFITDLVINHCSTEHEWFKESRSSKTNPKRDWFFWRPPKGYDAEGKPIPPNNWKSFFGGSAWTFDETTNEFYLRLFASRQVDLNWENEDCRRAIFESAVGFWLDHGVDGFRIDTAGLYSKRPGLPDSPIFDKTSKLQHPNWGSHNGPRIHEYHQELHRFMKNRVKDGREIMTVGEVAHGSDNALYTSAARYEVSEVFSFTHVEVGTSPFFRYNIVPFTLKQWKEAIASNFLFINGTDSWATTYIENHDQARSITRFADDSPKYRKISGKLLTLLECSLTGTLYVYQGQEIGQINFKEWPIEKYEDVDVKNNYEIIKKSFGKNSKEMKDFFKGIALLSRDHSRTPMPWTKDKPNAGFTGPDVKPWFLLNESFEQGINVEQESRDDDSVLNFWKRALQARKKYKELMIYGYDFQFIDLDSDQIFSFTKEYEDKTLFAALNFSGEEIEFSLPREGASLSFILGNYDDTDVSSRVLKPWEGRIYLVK
# protocolNotes: Fluorescence competitive binding assay against α-glucosidase/LD02 complex
endpointLabel: Kd (µM)
Unit µM implied. Number only.

State its Kd on α-glucosidase (Saccharomyces cerevisiae, UniProt P53341): CCN(CC)c1ccc2cc(/C(C)=N/OC(=O)/C=C/c3ccc(Br)cc3)c(=O)oc2c1 6.31

* * *

# protocolNotes: pH-dependent emission (pKa by Henderson-Hasselbalch equation)
# Type: physicochemical
# assayContext: from emission spectra in PBS buffer pH 3.0 to 8.0, room temperature
// pKa lookup, one value per entry
// no unit, no text: just the number

CCN(CC)c1ccc2cc(/C(C)=N/OC(=O)/C=C/c3ccc(Br)cc3)c(=O)oc2c1 [LD01] | 4.2

Okay, next one:
Entry under review: C/C(=N\OC(=O)/C=C/c1ccc(N(C)C)cc1)c1cc2ccccc2oc1=O [LD02] . Reported pKa? 4.6
